- study target: Acetylcholinesterase (Homo sapiens)
- Sequence (P22303 whole entry): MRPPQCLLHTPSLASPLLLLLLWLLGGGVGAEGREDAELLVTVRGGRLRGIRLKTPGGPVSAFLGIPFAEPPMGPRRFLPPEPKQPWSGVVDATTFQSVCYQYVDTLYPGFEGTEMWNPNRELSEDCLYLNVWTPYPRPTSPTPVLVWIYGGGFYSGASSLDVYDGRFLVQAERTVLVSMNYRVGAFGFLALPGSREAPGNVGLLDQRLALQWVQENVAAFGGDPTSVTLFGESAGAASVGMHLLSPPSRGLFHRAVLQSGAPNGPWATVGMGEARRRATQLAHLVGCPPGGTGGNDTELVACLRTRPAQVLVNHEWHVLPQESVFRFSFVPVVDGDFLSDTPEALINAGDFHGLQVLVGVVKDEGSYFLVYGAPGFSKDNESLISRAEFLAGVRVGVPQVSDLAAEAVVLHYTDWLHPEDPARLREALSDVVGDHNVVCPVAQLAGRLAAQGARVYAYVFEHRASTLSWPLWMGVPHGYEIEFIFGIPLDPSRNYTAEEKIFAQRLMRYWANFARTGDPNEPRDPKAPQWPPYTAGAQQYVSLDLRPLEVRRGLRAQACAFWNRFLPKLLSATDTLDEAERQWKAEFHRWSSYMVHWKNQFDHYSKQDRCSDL
- procedure summary: Inhibition of AChE by Ellman's assay
property name: Ki (nM)
Give bare numbers, in nM.

Field: example entries. Status: answers known.
INSERT INTO assay_data (compound, study_target, units_label, measured_result) VALUES
  ('CC(C)(C)[Si](C)(C)O[C@H]1C=C2CCN3Cc4cc5c(cc4[C@H]([C@@H]1OC(=O)c1ccccc1)[C@@H]23)OCO5', 'Acetylcholinesterase (Homo sapiens)', 'nM', 390),
  ('CC(=O)O[C@H]1C=C2CCN3Cc4cc5c(cc4[C@H]([C@@H]1OC(=O)c1ccccc1)[C@@H]23)OCO5', 'Acetylcholinesterase (Homo sapiens)', 'nM', 970),
  ('CC(=O)O[C@H]1[C@H]2c3cc4c(cc3CN3CCC(=C[C@@H]1O[Si](C)(C)C(C)(C)C)[C@H]23)OCO4', 'Acetylcholinesterase (Homo sapiens)', 'nM', 340),
  ('CC(C)(C)[Si](C)(C)O[C@H]1C=C2CCN3Cc4cc5c(cc4[C@H]([C@@H]1O)[C@@H]23)OCO5', 'Acetylcholinesterase (Homo sapiens)', 'nM', 860),
  ('O=C(O[C@H]1[C@H]2c3cc4c(cc3CN3CCC(=C[C@@H]1O)[C@H]23)OCO4)c1ccccc1', 'Acetylcholinesterase (Homo sapiens)', 'nM', 540);

Query: State the recorded Ki for this entry: CC(=O)O[C@H]1[C@H]2c3cc4c(cc3CN3CCC(=C[C@@H]1O)[C@H]23)OCO4
Response: 430

FYI, the data here is from ChEMBL document CHEMBL1221246.
